Target: Adenosine deaminase (Homo sapiens)
Sequence (P00813 whole entry): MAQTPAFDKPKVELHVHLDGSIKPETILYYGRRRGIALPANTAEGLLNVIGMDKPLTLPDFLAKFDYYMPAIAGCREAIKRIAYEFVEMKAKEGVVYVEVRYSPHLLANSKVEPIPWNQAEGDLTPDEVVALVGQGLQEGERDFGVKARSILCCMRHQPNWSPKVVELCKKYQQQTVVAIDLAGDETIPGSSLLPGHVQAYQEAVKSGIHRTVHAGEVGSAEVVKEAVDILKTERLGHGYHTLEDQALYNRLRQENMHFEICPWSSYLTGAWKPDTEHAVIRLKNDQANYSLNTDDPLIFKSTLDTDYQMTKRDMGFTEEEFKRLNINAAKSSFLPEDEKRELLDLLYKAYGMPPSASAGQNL
observable: Ki (nM)
Give the value, in units of nM, as a plain number.

Give the value of Ki reported for the following: CCCCCC[C@H]([C@H](C)O)n1cnc2c(N)ncnc21 [(+)-EHNA] 2

Value source: ChEMBL document CHEMBL1121750
